- procedure.summary: Pharmacokinetics in rats after single oral (intragastric) administration
- Format: in vivo
- experimental.parameters: male, Sprague-Dawley, rat, plasma, 10 mg/kg, mean ± SD (n = 6), read-out: Vz/F_obs (apparent volume of distribution)
Please go through the items and note down their Vd/F.
Answers are plain numbers, in L/kg.

[
  {
    "molecule": "CCCCCC(CC(=O)CCc1ccc(O)c(OC)c1)S(=O)(=O)O (centres unmarked)",
    "display.unit": "L/kg",
    "Vd/F": 32.4
  }
]

Please look at the following molecule next.
Data point: CCCCC/C=C/C(=O)CCc1ccc(O)c(OC)c1 [6-shogaol, reference compound] ; Vd/F = 71.9

----------
- procedure.summary: MTT cell viability assay, HCT-116
- Format: cell-based, human
- experimental.parameters: human, HCT-116 colon cancer cells, HCT-116, 10 μM
measured.metric: viability at 24 h, 10 µM (%)
Give bare numbers, in %.

So, CCCCC/C=C/C(=O)CCc1ccc(O)c(OC)c1 [6-shogaol, reference compound] ? Its viability at 24 h, 10 µM was 58.6

----------
- procedure.summary: Pharmacokinetics in rats after single oral (intragastric) administration
- Type: in vivo
- experimental.parameters: male, Sprague-Dawley, rat, 10 mg/kg, plasma, mean ± SD (n = 6)
measured.metric: AUC(0-t) (µg·h/mL)
One number for each entry, in µg·h/mL.

[
  {
    "compound": "CCCCCC(CC(=O)CCc1ccc(O)c(OC)c1)S(=O)(=O)O (centres unmarked) [6-gingesulfonic acid]",
    "AUC(0-t) / µg·h/mL": 8.71
  }
]

Consider the additional compound presented here.
Form field AUC(0-t), entry CCCCC/C=C/C(=O)CCc1ccc(O)c(OC)c1 [6-shogaol, reference compound] : 0.0768

----------
- procedure.summary: Pharmacokinetics in rats after single oral (intragastric) administration
- Assay type: in vivo
- experimental.parameters: male, Sprague-Dawley, rat, plasma, 10 mg/kg, mean ± SD (n = 6), read-out: Cl/F_obs (apparent total body clearance) (converted)
measured.metric: CL/F

[
  {
    "compound": "CCCCCC(CC(=O)CCc1ccc(O)c(OC)c1)S(=O)(=O)O (centres unmarked) [6-gingesulfonic acid]",
    "CL/F": "18 mL/min/kg"
  }
]

# compound CCCCC/C=C/C(=O)CCc1ccc(O)c(OC)c1 [6-shogaol, reference compound] ; its CL/F = 1470 mL/min/kg

----------
For each of the compounds below, state its viability at 24 h, 100 µM.
- procedure.summary: MTT cell viability assay, Hep-G2
- Assay type: cell-based
- experimental.parameters: human, Hep-G2 hepatocellular carcinoma cells, Hep-G2, 100 μM
Answers are plain numbers, in %.

[
  {
    "compound": "CCCCCC(CC(=O)CCc1ccc(O)c(OC)c1)S(=O)(=O)O (centres unmarked) [6-gingesulfonic acid]",
    "display.unit": "%",
    "viability at 24 h, 100 µM": 84.2
  }
]

Would you kindly look at the next entry?
For CCCCC/C=C/C(=O)CCc1ccc(O)c(OC)c1 [6-shogaol, reference compound] the compound record lists viability at 24 h, 100 µM as 2.73

----------
- procedure.summary: Pharmacokinetics in rats after single oral (intragastric) administration
- Format: in vivo
- experimental.parameters: male, Sprague-Dawley, rat, 10 mg/kg, plasma, mean ± SD (n = 6)
- Protocol: A multiple reaction monitoring (MRM) mass acquisition method using a triple quadrupole (QQQ) mass spectrometer was used to determine compound I and 6-shogaol in rat plasma. Chromatographic separation was performed on an Agilent 1290 UPLC equipped with a binary pump with degasser (G4220A), a thermostatic column compartment (G1316C), and an autosampler (G4226A). […] The pharmacokinetic parameters were calculated using the PKSolver 2.0 add-in with a non-compartment model.[11],[12] […]
Please respond with reported Tmax for every item in the list.
Numbers only, in h.

[
  {
    "compound": "CCCCCC(CC(=O)CCc1ccc(O)c(OC)c1)S(=O)(=O)O (centres unmarked) [6-gingesulfonic acid]",
    "recorded.value": 5.33
  }
]

Let's switch to this compound now.
The value of Tmax measured for the compound CCCCC/C=C/C(=O)CCc1ccc(O)c(OC)c1 [6-shogaol, reference compound] turned out to be 0.14

----------
- procedure.summary: MTT cell viability assay, HCC-1806
- Type: cell-based
- experimental.parameters: human, HCC-1806 breast cancer cells, HCC-1806, 100 μM
- Description: HCT-116 colon cancer cells (Procell, Wuhan, China) were cultured in McCoy’s 5A medium (Gibco; Thermo Fisher Scientific Inc., MA, USA), Hep-G2 hepatocellular carcinoma cells (Procell, Wuhan, China) in Eagle’s minimum essential medium (EMEM, Gibco; Thermo Fisher Scientific Inc., MA, USA), and HCC-1806 breast cancer cells (Manassas, VA, USA) in RPMI-1640 medium (Gibco; Thermo Fisher Scientific Inc., MA, USA). […]
measured.metric: viability at 24 h, 100 µM (%)
Numbers only, in %.

[
  {
    "compound": "CCCCCC(CC(=O)CCc1ccc(O)c(OC)c1)S(=O)(=O)O (centres unmarked)",
    "viability at 24 h, 100 µM, %": 64.6
  }
]

Recorded viability at 24 h, 100 µM (compound CCCCC/C=C/C(=O)CCc1ccc(O)c(OC)c1 [6-shogaol, reference compound] ): 7.84

----------
- procedure.summary: Pharmacokinetics in rats after single oral (intragastric) administration
- Format: in vivo
- experimental.parameters: male, Sprague-Dawley, rat, 10 mg/kg, plasma, mean ± SD (n = 6)
Please provide measured AUC(0-inf) for the entries that follow.
Answers are plain numbers, in ng·h/mL.

[
  {
    "compound": "CCCCCC(CC(=O)CCc1ccc(O)c(OC)c1)S(=O)(=O)O (centres unmarked) [6-gingesulfonic acid]",
    "measured.metric": "AUC(0-inf)",
    "recorded.value": 9580
  }
]

# input for lookup
The compound listed as CCCCC/C=C/C(=O)CCc1ccc(O)c(OC)c1 [6-shogaol, reference compound] shows AUC(0-inf) equal to 121

----------
Exercise: state measured half-life for each of the compounds provided.
- procedure.summary: Pharmacokinetics in rats after single oral (intragastric) administration
- Type: in vivo
- experimental.parameters: male, Sprague-Dawley, rat, plasma, 10 mg/kg, mean ± SD (n = 6), read-out: T1/2 (terminal half-life) (converted)
Give bare numbers, in h.

[
  {
    "compound": "CCCCC/C=C/C(=O)CCc1ccc(O)c(OC)c1 [6-shogaol, reference compound]",
    "recorded.value": 0.64
  }
]

// half-life lookup, compound = CCCCCC(CC(=O)CCc1ccc(O)c(OC)c1)S(=O)(=O)O (centres unmarked) [6-gingesulfonic acid] , result: 20.8

----------
Record form. Attribute: MRT. Fill in for each entry.
- procedure.summary: Pharmacokinetics in rats after single oral (intragastric) administration
- Type: in vivo
- experimental.parameters: male, Sprague-Dawley, rat, plasma, 10 mg/kg, mean ± SD (n = 6), read-out: MRT (mean residence time)

[
  {
    "compound": "CCCCC/C=C/C(=O)CCc1ccc(O)c(OC)c1 [6-shogaol, reference compound]",
    "MRT": "1.02 h"
  }
]

Okay, now this compound:
The compound identified as CCCCCC(CC(=O)CCc1ccc(O)c(OC)c1)S(=O)(=O)O (centres unmarked) registered its MRT at 30.4 h

----------
- procedure.summary: Pharmacokinetics in rats after single oral (intragastric) administration
- Format: in vivo
- experimental.parameters: male, Sprague-Dawley, rat, 10 mg/kg, plasma, mean ± SD (n = 6)
measured.metric: Cmax (µg/mL)
One number for each entry, in µg/mL.

[
  {
    "compound": "CCCCC/C=C/C(=O)CCc1ccc(O)c(OC)c1 [6-shogaol, reference compound]",
    "measured.metric": "Cmax",
    "recorded.value": 0.155
  }
]

Record CCCCCC(CC(=O)CCc1ccc(O)c(OC)c1)S(=O)(=O)O (centres unmarked) [6-gingesulfonic acid] , field Cmax: 0.52
